// data source = patent US7658917

TARGET OF ASSAY: natural β-amyloid peptide β-AP1-40 (human)
Sequence (peptide, as listed by the source): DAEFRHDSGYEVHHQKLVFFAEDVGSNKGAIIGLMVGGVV
TEST NAME: cell-based or functional assay
Square brackets hold non-standard residues; d marks the D form. Primed or numbered codes have the meaning given here. * marks the point of attachment. Cholyl = C[C@H](CCC(=O)*)[C@H]1CC[C@H]2[C@@H]3[C@H](O)C[C@@H]4C[C@H](O)CC[C@]4(C)[C@H]3C[C@H](O)[C@]12C; Aic″ = 3-(O-aminoethyl-iso)-cholyl; NANA = N-acetyl neuraminyl
MEASUREMENT KIND: % Iext'n; seeded extension assay; 25 mole % (%)
Write the number in % without appending the unit.

Consider the binder Cholyl-LVFFAE-OH (SMILES CC(C)C[C@H](NC(=O)CC[C@@H](C)[C@H]1CC[C@H]2[C@@H]3[C@H](O)C[C@@H]4C[C@H](O)CC[C@]4(C)[C@H]3C[C@H](O)[C@]12C)C(=O)N[C@H](C(=O)N[C@@H](Cc1ccccc1)C(=O)N[C@@H](Cc1ccccc1)C(=O)N[C@@H](C)C(=O)N[C@@H](CCC(=O)O)C(=O)O)C(C)C) [CA-LVFFAE-oh] and give its measured % Iext'n; seeded extension assay; 25 mole %. 16

Do the same for H-LVFFA[Aic″]-OH [h-LVFFA-(Aic)-oh] please 3

Do the same for {NANA}-KLVFF-OH [NANA-KLVFF-oh] please 8

Do the same for H-LVFFA-OH [h-LVFFA-oh] please 11

Do the same for Cholyl-AAAAA-OH (SMILES C[C@H](NC(=O)[C@H](C)NC(=O)[C@H](C)NC(=O)[C@H](C)NC(=O)[C@H](C)NC(=O)CC[C@@H](C)[C@H]1CC[C@H]2[C@@H]3[C@H](O)C[C@@H]4C[C@H](O)CC[C@]4(C)[C@H]3C[C@H](O)[C@]12C)C(=O)O) [Cholyl-penta-alanine] please 0
